- Test system: tail flick (pain latency) in mice
- protocol_notes: Analgesic testing by tail flick test in mice
- Format: in vivo
- condition_details: Mus musculus, 1 mg/kg intravenous, read-out: Antinociceptive action in % relative to control group
// reported inhibition in vivo at 1 mg/kg per item
metric: inhibition in vivo at 1 mg/kg (%)

>>> value_reported("COc1ccc(N(CCC2CCN(CCc3ccccc3)CC2)C(=O)c2ccccc2)cc1Cl")
23
>>> value_reported("CC(=O)N(CCC1CCN(CCc2ccccc2)CC1)c1ccccc1")
24
>>> value_reported("O=C(CC1CCN(CCc2ccccc2)CC1)Nc1cccc(C(F)(F)F)c1")
21
>>> value_reported("FC(F)(F)c1cccc(NCCC2CCN(CCc3ccccc3)CC2)c1")
31
>>> value_reported("CCC(=O)N(CCC1CCN(CCc2ccccc2)CC1)c1ccc(OC)c(Cl)c1")
35
>>> value_reported("CC(=O)N(CCC1CCN(CCc2ccccc2)CC1)c1cccc(C(F)(F)F)c1")
34
>>> value_reported("O=C(c1ccccc1)N(CCC1CCN(CCc2ccccc2)CC1)c1ccccc1")
24
